# Test system: Enterococcus faecium
# Procedure details: Antimicrobial activity against Enterococcus faecium clinical isolates assessed as resistant isolates by broth microdilution method
# Format: functional
Measured parameter: Activity (%)

INSERT INTO assay_data (compound, display_unit, assay_value) VALUES
  ('CC(=O)NC[C@H]1CN(c2ccc(N3CCOCC3)c(F)c2)C(=O)O1 [LINEZOLID]', '%', 0.4),
  ('CN[C@@H]1[C@H](O[C@H]2[C@H](O[C@H]3[C@H](O)[C@@H](O)[C@H](N=C(N)N)[C@@H](O)[C@@H]3N=C(N)N)O[C@@H](C)[C@]2(O)C=O)O[C@@H](CO)[C@H](O)[C@H]1O [STREPTOMYCIN]', '%', 55.2),
  ('C[C@H]1COc2c(N3CCN(C)CC3)c(F)cc3c(=O)c(C(=O)O)cn1c23.C[C@H]1COc2c(N3CCN(C)CC3)c(F)cc3c(=O)c(C(=O)O)cn1c23.O [LEVOFLOXACIN]', '%', 85.3),
  ('CN[C@H](CC(C)C)C(=O)N[C@H]1C(=O)N[C@@H](CC(N)=O)C(=O)N[C@H]2C(=O)N[C@H]3C(=O)N[C@H](C(=O)N[C@H](C(=O)O)c4cc(O)cc(O)c4-c4cc3ccc4O)[C@H](O)c3ccc(c(Cl)c3)Oc3cc2cc(c3O[C@@H]2O[C@H](CO)[C@@H](O)[C@H](O)[C@H]2O[C@H]2C[C@](C)(N)[C@H](O)[C@H](C)O2)Oc2ccc(cc2Cl)[C@H]1O [VANCOMYCIN]', '%', 56.3),
  ('CC1(C)S[C@@H]2[C@H](NC(=O)[C@H](N)c3ccccc3)C(=O)N2[C@H]1C(=O)O [AMPICILLIN]', '%', 87.3);
